# tested system: SRC (human) (UniProt P12931)
# Sequence (P12931 whole entry, looked up): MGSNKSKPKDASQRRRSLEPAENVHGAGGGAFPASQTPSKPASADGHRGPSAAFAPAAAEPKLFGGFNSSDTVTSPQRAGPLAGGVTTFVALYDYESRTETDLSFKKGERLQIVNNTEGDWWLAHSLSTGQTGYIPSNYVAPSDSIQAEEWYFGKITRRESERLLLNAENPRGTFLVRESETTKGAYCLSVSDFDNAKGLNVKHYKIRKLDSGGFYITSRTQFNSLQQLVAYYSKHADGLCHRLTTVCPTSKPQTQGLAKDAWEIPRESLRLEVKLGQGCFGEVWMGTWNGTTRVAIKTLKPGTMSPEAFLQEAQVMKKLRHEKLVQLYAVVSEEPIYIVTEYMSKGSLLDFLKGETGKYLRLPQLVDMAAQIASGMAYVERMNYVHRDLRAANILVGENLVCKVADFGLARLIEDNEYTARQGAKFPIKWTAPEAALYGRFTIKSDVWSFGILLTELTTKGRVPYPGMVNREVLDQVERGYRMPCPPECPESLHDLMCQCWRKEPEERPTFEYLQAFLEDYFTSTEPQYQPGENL
# test details: KINOMEscan competition binding
# test parameters: compound 10.0 µM
# maps each entry to its kinase still bound, per cent of control
observation type: kinase still bound, per cent of control

- compound: "C=CC(=O)Nc1cccc(Oc2nc(Nc3ccc(N4CCN(C)CC4)cc3OC)ncc2Cl)c1"
  assay result: "100%"
- compound: "O=C(NOC[C@H](O)CO)c1ccc(F)c(F)c1Nc1ccc(I)cc1F"
  assay result: "69%"
- compound: "OCCCNc1cc(-c2ccnc(Nc3cccc(Cl)c3)n2)ccn1"
  assay result: "100%"
- compound: "CC[C@@H]1C(=O)N(C)c2cnc(Nc3ccc(C(=O)NC4CCN(C)CC4)cc3OC)nc2N1C1CCCC1"
  assay result: "100%"
- compound: "COc1cc(N2CCN(C)CC2)ccc1Nc1nc(N)c(C(=O)c2c(Cl)cccc2Cl)s1"
  assay result: "100%"
- compound: "CCC(=O)N1CCN(c2ccc(-n3c(=O)ccc4cnc5ccc(-c6cnc7ccccc7c6)cc5c43)cc2C(F)(F)F)CC1"
  assay result: "95%"
- compound: "O=C(NC1CC1)c1cccc(-c2ccc3c(NC(=O)C4CC4)n[nH]c3c2)c1"
  assay result: "100%"
- compound: "COc1cc(C(=O)NC2CCN(C)CC2)ccc1Nc1ncc2c(n1)N(C1CCCC1)C(C)CC(=O)N2C (stereo not given)"
  assay result: "100%"
- compound: "Cc1ccc2nc(NCCN)c3ncc(C)n3c2c1"
  assay result: "100%"
- compound: "O=C1Nc2ccc(I)cc2/C1=C/c1cc(Br)c(O)c(Br)c1"
  assay result: "100%"

---

# System: PIK3CA (human), P42336 [E545K]
# Sequence (P42336 whole entry E545K, looked up): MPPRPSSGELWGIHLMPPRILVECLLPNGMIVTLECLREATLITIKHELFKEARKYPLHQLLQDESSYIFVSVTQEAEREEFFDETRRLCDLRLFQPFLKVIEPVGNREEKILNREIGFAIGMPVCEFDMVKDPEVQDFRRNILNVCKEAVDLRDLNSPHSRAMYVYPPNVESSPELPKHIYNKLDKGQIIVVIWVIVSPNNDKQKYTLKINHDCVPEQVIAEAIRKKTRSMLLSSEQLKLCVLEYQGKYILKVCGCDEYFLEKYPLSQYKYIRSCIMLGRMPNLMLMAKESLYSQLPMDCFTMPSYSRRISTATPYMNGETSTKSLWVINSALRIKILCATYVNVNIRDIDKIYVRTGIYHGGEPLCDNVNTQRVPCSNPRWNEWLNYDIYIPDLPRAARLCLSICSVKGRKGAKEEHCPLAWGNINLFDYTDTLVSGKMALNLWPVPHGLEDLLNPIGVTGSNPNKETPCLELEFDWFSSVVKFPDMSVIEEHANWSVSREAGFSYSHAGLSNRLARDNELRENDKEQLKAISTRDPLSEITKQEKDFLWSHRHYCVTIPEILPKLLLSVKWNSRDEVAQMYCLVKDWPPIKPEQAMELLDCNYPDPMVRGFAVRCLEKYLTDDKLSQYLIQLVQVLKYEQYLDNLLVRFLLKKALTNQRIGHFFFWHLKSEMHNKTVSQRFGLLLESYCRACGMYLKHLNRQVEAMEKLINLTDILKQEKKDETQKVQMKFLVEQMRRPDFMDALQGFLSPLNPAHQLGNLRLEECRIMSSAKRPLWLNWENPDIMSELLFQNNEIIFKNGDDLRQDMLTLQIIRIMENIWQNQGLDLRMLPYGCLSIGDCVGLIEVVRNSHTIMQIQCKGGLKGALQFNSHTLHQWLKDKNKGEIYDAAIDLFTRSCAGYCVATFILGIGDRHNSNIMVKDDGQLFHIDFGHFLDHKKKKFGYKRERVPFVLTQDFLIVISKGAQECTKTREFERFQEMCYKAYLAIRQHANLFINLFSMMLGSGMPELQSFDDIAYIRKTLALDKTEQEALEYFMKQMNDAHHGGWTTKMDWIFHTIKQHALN
# test details: KINOMEscan competition binding
# test parameters: compound 10.0 µM

- test smiles: "COc1cc2ncn(-c3cc(OCc4ccccc4C(F)(F)F)c(C(N)=O)s3)c2cc1OC"
  kinase still bound, per cent of control (%): 90
- test smiles: "O=C(NOC[C@H](O)CO)c1ccc(F)c(F)c1Nc1ccc(I)cc1F"
  kinase still bound, per cent of control (%): 53
- test smiles: "C=CC(=O)Nc1ccc(CN(C(=O)Nc2c(Cl)c(OC)cc(OC)c2Cl)c2cc(Nc3ccc(N4CCN(C)CC4)cc3)ncn2)cc1"
  kinase still bound, per cent of control (%): 100
- test smiles: "COc1cc2ncnc(-n3nc(-c4ccccn4)nc3N)c2cc1OC"
  kinase still bound, per cent of control (%): 40
- test smiles: "CNC(=O)c1ccc(Nc2cc(Nc3ccccc3S(=O)(=O)C(C)C)c3cc[nH]c3n2)nc1"
  kinase still bound, per cent of control (%): 4.7
- test smiles: "CCc1nc(-c2cccc(C)c2)c(-c2ccnc(NC(=O)c3ccccc3)c2)s1"
  kinase still bound, per cent of control (%): 98
- test smiles: "O=c1[nH]c2ccccc2n1C1CCN(Cc2ccc(-c3nc4cc5[nH]cnc5cc4nc3-c3ccccc3)cc2)CC1"
  kinase still bound, per cent of control (%): 69
- test smiles: "CCOc1cc(N2CCC(O)CC2)ccc1Nc1ncc2c(n1)N(C)c1ccccc1C(=O)N2C"
  kinase still bound, per cent of control (%): 100
- test smiles: "COc1cc2ncnc(Nc3cccc(Cl)c3)c2cc1OC"
  kinase still bound, per cent of control (%): 71
- test smiles: "COc1cc(C(=O)NC2CCN(C)CC2)ccc1Nc1ncc2c(n1)N(C1CCCC1)CCC(=O)N2C(C)C"
  kinase still bound, per cent of control (%): 100
- test smiles: "N#Cc1c(NC(=O)c2cccc3ccccc23)sc2c1CCCC2"
  kinase still bound, per cent of control (%): 88
- test smiles: "COc1cc(N2CCN(C)CC2)ccc1Nc1nc(N)c(C(=O)c2c(Cl)cccc2Cl)s1"
  kinase still bound, per cent of control (%): 100
- test smiles: "O=C(NC1CC1)c1cccc(-c2ccc3c(NC(=O)C4CC4)n[nH]c3c2)c1"
  kinase still bound, per cent of control (%): 95
- test smiles: "CN(C)C/C=C/C(=O)Nc1ccc(C(=O)Nc2cccc(Nc3nccc(-c4cccnc4)n3)c2)cc1"
  kinase still bound, per cent of control (%): 100
- test smiles: "COc1cc(N2CCN(C)CC2)ccc1Nc1ncc2c(n1)N(C)c1ccccc1C(=O)N2C"
  kinase still bound, per cent of control (%): 100
- test smiles: "C=CC(=O)Nc1ccc(C(=O)c2sc(Nc3ccc(N4CCN(C)CC4)cc3OC)nc2N)cc1"
  kinase still bound, per cent of control (%): 93
- test smiles: "COc1cc(N2CCC(C(N)=O)CC2)ccc1Nc1nc(N)c(Cl)c(Nc2ccccc2S(=O)(=O)C(C)C)n1"
  kinase still bound, per cent of control (%): 100
- test smiles: "C=CC(=O)Nc1cc(NC(=O)c2ccc(C)c(NC(=O)c3ccno3)c2)cc(C(F)(F)F)c1"
  kinase still bound, per cent of control (%): 95
- test smiles: "C[C@@H](Oc1cc(-n2cnc3ccc(CN4CCN(C)CC4)cc32)sc1C(N)=O)c1ccccc1C(F)(F)F"
  kinase still bound, per cent of control (%): 71

---

# tested system: AXL (human) (UniProt P30530)
# Sequence (P30530 whole entry, looked up): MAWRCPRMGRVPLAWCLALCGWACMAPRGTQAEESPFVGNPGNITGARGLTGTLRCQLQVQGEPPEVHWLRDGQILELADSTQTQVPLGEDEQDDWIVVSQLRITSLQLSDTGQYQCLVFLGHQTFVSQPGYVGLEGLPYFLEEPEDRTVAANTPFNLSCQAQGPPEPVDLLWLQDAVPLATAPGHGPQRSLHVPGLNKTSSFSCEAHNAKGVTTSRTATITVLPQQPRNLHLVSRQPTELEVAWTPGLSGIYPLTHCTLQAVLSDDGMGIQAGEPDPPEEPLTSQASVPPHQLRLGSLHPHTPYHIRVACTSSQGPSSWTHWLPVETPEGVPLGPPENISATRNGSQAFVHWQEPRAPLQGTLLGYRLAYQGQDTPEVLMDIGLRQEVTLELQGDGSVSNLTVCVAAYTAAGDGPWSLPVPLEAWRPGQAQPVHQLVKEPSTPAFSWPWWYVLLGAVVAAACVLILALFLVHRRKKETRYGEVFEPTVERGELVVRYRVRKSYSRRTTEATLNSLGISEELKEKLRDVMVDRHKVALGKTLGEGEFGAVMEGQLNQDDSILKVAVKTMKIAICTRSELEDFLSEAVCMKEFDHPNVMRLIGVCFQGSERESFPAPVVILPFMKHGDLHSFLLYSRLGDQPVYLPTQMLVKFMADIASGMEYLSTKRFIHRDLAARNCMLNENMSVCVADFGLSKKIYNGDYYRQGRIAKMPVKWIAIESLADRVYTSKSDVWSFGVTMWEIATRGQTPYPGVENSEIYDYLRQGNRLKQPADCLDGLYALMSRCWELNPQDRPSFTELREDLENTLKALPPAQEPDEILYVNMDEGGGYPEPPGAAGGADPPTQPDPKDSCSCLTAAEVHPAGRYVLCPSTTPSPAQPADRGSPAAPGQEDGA
# test details: KINOMEscan competition binding
# test parameters: compound 10.0 µM

- test smiles: "Cc1ccc(C(=O)Nc2cccc(C(F)(F)F)c2)cc1Nc1cncc(C(N)=O)c1"
  kinase still bound, per cent of control, %: 100
- test smiles: "COc1cc(N2CCN(C)CC2)ccc1Nc1nc(N)c(C(=O)c2c(Cl)cccc2Cl)s1"
  kinase still bound, per cent of control, %: 100
- test smiles: "C=CC(=O)Nc1cccc(Oc2nc(Nc3ccc(N4CCN(C)CC4)cc3OC)ncc2Cl)c1"
  kinase still bound, per cent of control, %: 100
- test smiles: "CC[C@@H]1C(=O)N(C)c2cnc(Nc3ccc(C(=O)NC4CCN(C)CC4)cc3OC)nc2N1C1CCCC1"
  kinase still bound, per cent of control, %: 100
- test smiles: "OCCCNc1cc(-c2ccnc(Nc3cccc(Cl)c3)n2)ccn1"
  kinase still bound, per cent of control, %: 100
- test smiles: "CCOc1cc2ncc(C#N)c(Nc3ccc(OCc4ccccn4)c(Cl)c3)c2cc1NC(=O)/C=C/CN(C)C"
  kinase still bound, per cent of control, %: 5.4

---

# tested system: STK17A (human) (UniProt Q9UEE5)
# Sequence (Q9UEE5 whole entry, looked up): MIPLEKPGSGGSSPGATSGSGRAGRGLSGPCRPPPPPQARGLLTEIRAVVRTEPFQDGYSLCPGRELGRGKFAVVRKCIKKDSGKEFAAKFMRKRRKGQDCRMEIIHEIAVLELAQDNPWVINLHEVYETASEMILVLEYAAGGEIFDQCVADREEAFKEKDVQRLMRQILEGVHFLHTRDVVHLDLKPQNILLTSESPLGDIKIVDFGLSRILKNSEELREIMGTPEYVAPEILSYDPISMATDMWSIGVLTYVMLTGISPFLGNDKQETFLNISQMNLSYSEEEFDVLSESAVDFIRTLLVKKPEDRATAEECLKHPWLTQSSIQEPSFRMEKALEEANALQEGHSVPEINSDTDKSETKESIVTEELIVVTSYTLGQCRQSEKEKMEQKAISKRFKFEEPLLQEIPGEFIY
# test details: KINOMEscan competition binding
# test parameters: compound 10.0 µM

- compound: "O=C(NC1CC1)c1cccc(-c2ccc3c(NC(=O)C4CC4)n[nH]c3c2)c1"
  scale unit: "%"
  kinase still bound, per cent of control: 96
- compound: "C=CC(=O)Nc1cccc(Oc2nc(Nc3ccc(N4CCN(C)CC4)cc3OC)ncc2Cl)c1"
  scale unit: "%"
  kinase still bound, per cent of control: 1.6
- compound: "COc1cc(C(=O)NC2CCN(C)CC2)ccc1Nc1ncc2c(n1)N(C1CCCC1)C(C)CC(=O)N2C (stereo not given)"
  scale unit: "%"
  kinase still bound, per cent of control: 100
- compound: "Cc1ccc(C(=O)Nc2cccc(C(F)(F)F)c2)cc1Nc1cncc(C(N)=O)c1"
  scale unit: "%"
  kinase still bound, per cent of control: 100
- compound: "O=C(NOC[C@H](O)CO)c1ccc(F)c(F)c1Nc1ccc(I)cc1F"
  scale unit: "%"
  kinase still bound, per cent of control: 100
- compound: "COc1cc(N2CCN(C)CC2)ccc1Nc1nc(N)c(C(=O)c2c(Cl)cccc2Cl)s1"
  scale unit: "%"
  kinase still bound, per cent of control: 100
- compound: "Cc1ccc(NC(=O)c2cccc(C(C)(C)C#N)c2)cc1Nc1ccc2ncn(C)c(=O)c2c1"
  scale unit: "%"
  kinase still bound, per cent of control: 100
- compound: "Cc1ccc2nc(NCCN)c3ncc(C)n3c2c1"
  scale unit: "%"
  kinase still bound, per cent of control: 68
- compound: "CC[C@@H]1C(=O)N(C)c2cnc(Nc3ccc(C(=O)NC4CCN(C)CC4)cc3OC)nc2N1C1CCCC1"
  scale unit: "%"
  kinase still bound, per cent of control: 100
- compound: "O=C1Nc2ccc(I)cc2/C1=C/c1cc(Br)c(O)c(Br)c1"
  scale unit: "%"
  kinase still bound, per cent of control: 2.5

---

# tested system: KDR (human)
# test details: KINOMEscan competition binding
# test parameters: compound 10.0 µM
# maps each entry to its kinase still bound, per cent of control
observation type: kinase still bound, per cent of control

- compound: "COc1cc(C(=O)NC2CCN(C)CC2)ccc1Nc1ncc2c(n1)N(C1CCCC1)CCC(=O)N2C(C)C"
  assay result: "100%"
- compound: "OCCCNc1cc(-c2ccnc(Nc3cccc(Cl)c3)n2)ccn1"
  assay result: "100%"
- compound: "C[C@@H](Oc1cc(-n2cnc3ccc(CN4CCN(C)CC4)cc32)sc1C(N)=O)c1ccccc1C(F)(F)F"
  assay result: "100%"
- compound: "CCOc1cc2ncc(C#N)c(Nc3ccc(OCc4ccccn4)c(Cl)c3)c2cc1NC(=O)/C=C/CN(C)C"
  assay result: "94%"
- compound: "Cn1c(=O)n(-c2ccc(C(C)(C)C#N)cc2)c2c3cc(-c4cnc5ccccc5c4)ccc3ncc21"
  assay result: "100%"
- compound: "COc1cc(C(=O)NC2CCN(C)CC2)ccc1Nc1ncc2c(n1)N(C1CCCC1)C(C)CC(=O)N2C (centres undefined)"
  assay result: "100%"
- compound: "Cc1cc([C@@H](C)Nc2ccccc2C(=O)O)c2nc(N3CCOCC3)cc(=O)n2c1"
  assay result: "100%"
- compound: "COc1cc(N2CCN(C)CC2)ccc1Nc1nc(N)c(C(=O)c2c(Cl)cccc2Cl)s1"
  assay result: "97%"
- compound: "C=CC(=O)Nc1cccc(Nc2nc(N[C@H]3CC[C@H](N(C)C)CC3)nc3c2ncn3C(C)C)c1"
  assay result: "96%"
- compound: "C=CC(=O)Nc1cccc(Oc2nc(Nc3ccc(N4CCN(C)CC4)cc3OC)ncc2Cl)c1"
  assay result: "100%"
- compound: "O=C(NOC[C@H](O)CO)c1ccc(F)c(F)c1Nc1ccc(I)cc1F"
  assay result: "84%"
- compound: "Cc1ccc(NC(=O)c2cccc(C(C)(C)C#N)c2)cc1Nc1ccc2ncn(C)c(=O)c2c1"
  assay result: "2.3%"
- compound: "Cc1ccc2nc(NCCN)c3ncc(C)n3c2c1"
  assay result: "100%"
- compound: "O=C1Nc2ccc(I)cc2/C1=C/c1cc(Br)c(O)c(Br)c1"
  assay result: "100%"
- compound: "CCCS(=O)(=O)Nc1ccc(F)c(C(=O)c2c[nH]c3ncc(-c4ccc(Cl)cc4)cc23)c1F"
  assay result: "31%"
- compound: "Nc1ccc(-c2ccc3ncc4ccc(=O)n(-c5cccc(C(F)(F)F)c5)c4c3c2)cn1"
  assay result: "100%"
- compound: "N#Cc1c(NC(=O)c2cccc3ccccc23)sc2c1CCCC2"
  assay result: "96%"
- compound: "CCC(=O)N1CCN(c2ccc(-n3c(=O)ccc4cnc5ccc(-c6cnc7ccccc7c6)cc5c43)cc2C(F)(F)F)CC1"
  assay result: "65%"
- compound: "Cc1ccc(C(=O)Nc2cccc(C(F)(F)F)c2)cc1Nc1cncc(C(N)=O)c1"
  assay result: "100%"

Ref: the kinase profiling compilation of Christmann-Franck et al. (2016)
